# TESTED_ON: BuChE (Homo sapiens, UniProt P06276)
# Construct: BuChE (3.4 U/mg) was obtained from human plasma; from tissue; host or cells: human plasma
# Sequence (P06276 29-602): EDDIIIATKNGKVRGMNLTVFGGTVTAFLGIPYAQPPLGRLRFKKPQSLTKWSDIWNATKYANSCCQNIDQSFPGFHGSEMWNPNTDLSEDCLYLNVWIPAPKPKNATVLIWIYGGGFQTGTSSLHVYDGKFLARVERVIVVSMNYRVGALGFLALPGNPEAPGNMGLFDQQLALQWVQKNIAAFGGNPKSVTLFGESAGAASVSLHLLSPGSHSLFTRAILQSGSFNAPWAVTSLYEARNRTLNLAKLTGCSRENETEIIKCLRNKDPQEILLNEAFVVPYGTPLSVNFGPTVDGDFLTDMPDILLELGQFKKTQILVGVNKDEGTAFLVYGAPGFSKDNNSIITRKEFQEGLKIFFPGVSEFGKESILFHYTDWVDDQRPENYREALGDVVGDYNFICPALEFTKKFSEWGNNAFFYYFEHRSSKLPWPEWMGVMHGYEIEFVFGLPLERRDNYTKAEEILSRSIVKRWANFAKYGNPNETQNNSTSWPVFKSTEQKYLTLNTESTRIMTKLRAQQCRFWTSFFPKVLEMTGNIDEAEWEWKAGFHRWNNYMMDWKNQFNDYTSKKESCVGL
# ASSAY_OVERVIEW: biochemical
# ASSAY_SETUP: 50 μM compound; BuChE from human plasma; pre-incubated 60 min at 37 °C; read-out: Inhibition % at 50 μM BuChE
Use 80% as the dividing line for inhibition at 50 µM, with the line itself on the criterion met side and lower values as criterion not met.

{"columns": ["STRUCTURE_NOTATION", "LABEL_CLASS"],
 "data": [
  ["CCN(C)CCOc1ccc2c(=O)c(-c3ccc(OC)cc3)coc2c1", "criterion met"],
  ["COc1ccc(-c2coc3cc(OCCCNCCc4c[nH]c5ccc(OC)cc45)ccc3c2=O)cc1", "criterion not met"],
  ["COc1ccc(-c2coc3cc(OCCN(C)Cc4ccccc4)ccc3c2=O)cc1", "criterion not met"],
  ["O=c1c(-c2ccc(OCCN3CCCCC3)cc2)coc2cc(OCCN3CCCCC3)ccc12", "criterion met"],
  ["COc1ccc(-c2coc3cc(OCCCCNCCc4c[nH]c5ccc(OC)cc45)ccc3c2=O)cc1", "criterion not met"],
  ["COc1ccc(-c2coc3cc(OCC(=O)N4CCCCC4)ccc3c2=O)cc1", "criterion not met"],
  ["COc1ccc(-c2coc3cc(OCCC(=O)N4CCCCC4)ccc3c2=O)cc1", "criterion not met"],
  ["CCN(C)CCCOc1ccc2c(=O)c(-c3ccc(OC)cc3)coc2c1", "criterion met"],
  ["CCN(C)CCCCOc1ccc2c(=O)c(-c3ccc(OC)cc3)coc2c1", "criterion met"],
  ["COc1ccc(-c2coc3cc(OCCCN4CCCCC4)ccc3c2=O)cc1", "criterion met"],
  ["O=c1c(-c2ccc(O)cc2)coc2cc(OCCN3CCCCC3)ccc12", "criterion met"],
  ["C#CCNCCOc1ccc2c(=O)c(-c3ccc(OC)cc3)coc2c1", "criterion not met"],
  ["COc1ccc(-c2coc3cc(OCCN(Cc4ccccc4)Cc4ccccc4)ccc3c2=O)cc1", "criterion not met"]
]}

----------
# TESTED_ON: AChE (Rattus norvegicus, UniProt P37136)
# Construct: AChE (0.5 U/mg) was extracted from rat cortex; from tissue; host or cells: rat cortex
# Sequence (P37136 32-614): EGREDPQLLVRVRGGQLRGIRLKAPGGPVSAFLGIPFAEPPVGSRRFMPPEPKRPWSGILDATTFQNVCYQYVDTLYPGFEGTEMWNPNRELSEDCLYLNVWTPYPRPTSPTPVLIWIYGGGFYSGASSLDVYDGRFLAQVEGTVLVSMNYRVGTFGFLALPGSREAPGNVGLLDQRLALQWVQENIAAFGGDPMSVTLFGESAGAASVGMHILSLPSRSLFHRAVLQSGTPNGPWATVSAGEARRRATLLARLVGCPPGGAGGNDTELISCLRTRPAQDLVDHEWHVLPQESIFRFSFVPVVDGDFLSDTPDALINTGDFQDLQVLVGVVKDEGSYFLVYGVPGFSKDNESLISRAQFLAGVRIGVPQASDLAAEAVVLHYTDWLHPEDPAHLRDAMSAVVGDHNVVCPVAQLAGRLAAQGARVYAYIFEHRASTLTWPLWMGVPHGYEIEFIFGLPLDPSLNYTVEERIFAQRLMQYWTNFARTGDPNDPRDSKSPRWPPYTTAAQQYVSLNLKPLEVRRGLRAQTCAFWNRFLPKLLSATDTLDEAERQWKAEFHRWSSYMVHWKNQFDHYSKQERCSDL
# ASSAY_OVERVIEW: biochemical
# ASSAY_SETUP: 50 μM compound; AChE extracted from rat cortex; pre-incubated 60 min at 37 °C; read-out: Inhibition % at 50 μM AChE
# Procedure: To measure in vitro AChE/BuChE activity, modified Ellman's method[27–30] was performed using a 96-well plate reader (BioTek ELx808). AChE (0.5 U/mg) was extracted from rat cortex while BuChE (3.4 U/mg) was obtained from human plasma. Each well contained 50 μl potassium phosphate buffer (KH2PO4/K2HPO4, 0.1 M, pH 8.0), 25 μl test compounds and 25 μl enzyme. […] They were pre-incubated for 60 min at 37 °C, and then 125 μl 5,5′-dithiobis-2-nitrobenzoic acid (DNTB, 3 mM in buffer) was added. […]
Listed compounds paired with reported inhibition at 50 µM

{"columns": ["STRUCTURE_NOTATION", "TESTED_ON", "UNIT_SPEC", "inhibition at 50 µM"],
 "data": [
  ["O=c1c(-c2ccc(O)cc2)coc2cc(OCCN3CCCCC3)ccc12", "AChE (Rattus norvegicus, UniProt P37136)", "%", 79.4],
  ["COc1ccc(-c2coc3cc(OCCC(=O)N4CCCCC4)ccc3c2=O)cc1", "AChE (Rattus norvegicus, UniProt P37136)", "%", -2.36],
  ["COc1ccc(-c2coc3cc(OCC(=O)N4CCCCC4)ccc3c2=O)cc1", "AChE (Rattus norvegicus, UniProt P37136)", "%", 0.54],
  ["C#CCNCCOc1ccc2c(=O)c(-c3ccc(OC)cc3)coc2c1", "AChE (Rattus norvegicus, UniProt P37136)", "%", 5.47],
  ["CCN(C)CCCCOc1ccc2c(=O)c(-c3ccc(OC)cc3)coc2c1", "AChE (Rattus norvegicus, UniProt P37136)", "%", 63.8],
  ["CCN(C)CCCOc1ccc2c(=O)c(-c3ccc(OC)cc3)coc2c1", "AChE (Rattus norvegicus, UniProt P37136)", "%", 25.4],
  ["COc1ccc(-c2coc3cc(OCCCCNCCc4c[nH]c5ccc(OC)cc45)ccc3c2=O)cc1", "AChE (Rattus norvegicus, UniProt P37136)", "%", 0.72],
  ["COc1ccc(-c2coc3cc(OCCCNCCc4c[nH]c5ccc(OC)cc45)ccc3c2=O)cc1", "AChE (Rattus norvegicus, UniProt P37136)", "%", 2.42]
]}
